- Subject of test: T1, AAV5 (adeno-associated virus serotype 5)
- T1 construct: also called adeno-associated virus serotype 5
- Method summary: SPR, AAV on CM5 chip;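 further: surface plasmon resonance with AAV amine-coupled to the chip as ligand, nanobodies injected as analyte over a concentration series, rate constants and affinity fitted from binding curves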
Experimental endpoint: kon (M⁻¹ s⁻¹)
The figure you give is taken to be in M⁻¹ s⁻¹; do not add the unit.

{"Binder": "A4-109 (VHH) VHH: VQLQESGGGLVQAGGSLRLSCAASGTIFSLNVMGWYRQAPGKQRELVASVTRGGNTNYADSVKGRFTISRDNAKTTVYLQMNSLRPEDTAVYYCHVDELRDSTWTTSNLWGQGTQVTVSS", "kon, M⁻¹ s⁻¹": 58800}
{"Binder": "A4-103 (VHH) VHH: VQLQESGGGLVQPGGSLRLSCAASGSIFSLNAMGWYRQAPGKQRELVATITRGGSTNYADSVKGRFTISRDNAKNTVYLQMNSLRPEDTAVYYCHVDEVRESIWTTSNLWGQGTQVTVSS", "kon, M⁻¹ s⁻¹": 51000}
{"Binder": "A4-112 (VHH) VHH: VQLQESGGGLVQTGGSLRLSCIASGSIFSINTVGWYRQAPPKQRELVATVTRAGSTWYAGSVKGRFTISRDNAKNTIYLQMNTLRPEDTAVYYCHVDEVRQSTWTTSNIWGQGTQVTVSS", "kon, M⁻¹ s⁻¹": 130000}

Entry under review: A4-105 (VHH) VHH: VQLQESGGGLVQPGGSLRLSCAASGSIFSLNAMGWYRQAPGKQRELVATITSGGSTNYADSVKGRFTISRDNAKNTAYLQMNNLQPEDTAVYYCHVDEVRESIWTTSNLWGQGTQVTVSS . Reported kon?
99600

Here is the next binder: A4-110 (VHH) VHH: VQLQESGGGLVQPGGSLRLSCFASGTNFSINVVGWYRQAPGKQRELVATITRGGSTNYAESVKGRFTISRDNAKNTVYLQMNNLRPEDTAVYYCHLDEVRDSSWTTSNLWGQGTQVTVSS
9270

Here is the next binder: A4-108 (VHH) VHH: VQLQESGGGLAQPGGSLRLSCLASGSGFSINTMGWYRQAPPKWRELVATVTRGGSTNYAGSVKGRFTISRDNPKNTVYLQMNSLRPEDTAVYYCHLDEVRQSTWTTSNIWGQGTQVTVSS
148000

Here is the next binder: A4-113 (VHH) VHH: VQLQESGGGLVQTGGSLRLSCVASGSRFSINTVGWYRQAPGKQRELVATVTRGGSTWYAGSVKGRFTISRDNTKNTIYLQMNSLRPEDTAVYYCHVDEIRQSTWTTSNLWGQGTQVTVSS
6660

Here is the next binder: A4-107 (VHH) VHH: VQLQESGGGLVQPGGSLRLSCIASGSGFSINTVGWYRQAPAKQRELVATLTRGGSTNYADSVKGRFTISRDNPKNTVYLQMNSLRPEDTAVYYCHVDEVRQSSWTTSNIWGQGTQVTVSS
5020

All values here come from patent US20260193326A1.
